Tested on: RPMI-8226 leukemia
Assay: NCI tumour cell line growth inhibition, 48 h; in the data active means GI50 below about 0.43 µM; inactive means the rest
Outcomes: active, inactive

>>> class_name("C/C1=C\\CC[C@@]2(C)O[C@@H]2[C@H]2OC(=O)[C@@H](CN(C)C)[C@@H]2CC1")
"inactive"
>>> class_name("COc1ccc(C(=O)c2cc(OC)c(C)c(OC)c2)cc1OC(=O)CCl")
"active"
>>> class_name("COc1ccc2c(c1)CCC1C2CC[C@@]2(C)C1CC1=CC(COC(C)=O)C3C(=O)c4ccccc4C(=O)C3C12 (some centres undefined)")
"inactive"
>>> class_name("COC(=O)/C=C/c1cc(O)c2oc(-c3ccc(O)c(O)c3)c(C(=O)OC)c2c1")
"active"
